Source: PubChem BioAssay AID1918941

Test system: SW 1271 complex spheroids, viability
Assay: Anticancer human tumor SW 1271 cell line growth inhibition [LSD1];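 further: spheroids exposed to agents for 7 days before luminescence read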
Details: second compound 10 µM; first compound 3 µM; stronger effect = lower value
Consider the following partition of reported viability, T/C into named classes: low end (below 50%), middle (50% to below 70%), high end (70% or more)

[
  {
    "COMPOUND": "COc1cc(C2c3cc4c(cc3C(OC3OC5COC(C)OC5C(O)C3O)C3COC(=O)C23)OCO4)cc(OC)c1O (stereo not given) + NC1CCC(NC2CC2c2ccccc2)CC1",
    "ASSIGNED CATEGORY": "middle"
  }
]

Consider Nc1ccccc1NC(=O)c1ccc(CNC(=O)OCc2cccnc2)cc1 + NC1CC1c1ccc(-c2cccc(O)c2)cc1 . To which viability, T/C class does it belong? low end

Bin? Nc1ccccc1NC(=O)c1ccc(CNC(=O)OCc2cccnc2)cc1 + NC1CCC(NC2CC2c2ccccc2)CC1 low end

Please report the category associated with CCN(c1cc(-c2ccc(CN3CCOCC3)cc2)cc(C(=O)NCc2c(C)cc(C)[nH]c2=O)c1C)C1CCOCC1 + NC1CCC(NC2CC2c2ccccc2)CC1 , nothing else. middle

Categorize the following entry: NS(=O)(=O)OCC1CC(n2ccc3c(NC4CCc5ccccc54)ncnc32)CC1O (stereo not given) + NC1CC1c1ccc(-c2cccc(O)c2)cc1 high end

Please report the category associated with CCN(c1cc(-c2ccc(CN3CCOCC3)cc2)cc(C(=O)NCc2c(C)cc(C)[nH]c2=O)c1C)C1CCOCC1 + NC1CC1c1ccc(-c2cccc(O)c2)cc1 , nothing else. middle

Determine which band this compound sits in: COc1cc(C2c3cc4c(cc3C(OC3OC5COC(C)OC5C(O)C3O)C3COC(=O)C23)OCO4)cc(OC)c1O (stereo not given) + NC1CC1c1ccc(-c2cccc(O)c2)cc1 low end

Form field 'band' for O=C(C=Cc1cccc(S(=O)(=O)Nc2ccccc2)c1)NO + NC1CC1c1ccc(-c2cccc(O)c2)cc1 low end

Which class is correct for the following compound? O=C(C=Cc1cccc(S(=O)(=O)Nc2ccccc2)c1)NO + NC1CCC(NC2CC2c2ccccc2)CC1 high end
